# experimental_system: TEAD2 (Homo sapiens)
# assay_method_text: Thermal shift assay TEAD2
# Format: binding
Please go through the items and note down their TEAD2 ΔTm.

# input Return reported TEAD2 ΔTm; argument: Cn1cc2cc(Oc3ccc(C(F)(F)F)cc3)cc(C3C[C@H]3C(=O)NC3CC4(CC(O)C4)C3)c2n1 (single isomer, unassigned)
# output 10.6 °C

# input Repeat with Cn1cc2cc(Oc3ccc(C(F)(F)F)cc3)cc(C3C[C@H]3C(=O)N3C4COCC3CC(O)C4)c2n1 (single isomer, unassigned) [Example 116b]
# output 5.3 °C

# input What do you get for `CNS(=O)(=O)CCc1cc(Oc2ccc(C(F)(F)F)cc2)cc2c1NCCC2` ?
# output 13.2 °C

* * *

Would you kindly list TEAD2 ΔTm for each of these molecules?
# experimental_system: TEAD2 (Homo sapiens, UniProt Q15562)
# Sequence (Q15562 whole entry, species assumed): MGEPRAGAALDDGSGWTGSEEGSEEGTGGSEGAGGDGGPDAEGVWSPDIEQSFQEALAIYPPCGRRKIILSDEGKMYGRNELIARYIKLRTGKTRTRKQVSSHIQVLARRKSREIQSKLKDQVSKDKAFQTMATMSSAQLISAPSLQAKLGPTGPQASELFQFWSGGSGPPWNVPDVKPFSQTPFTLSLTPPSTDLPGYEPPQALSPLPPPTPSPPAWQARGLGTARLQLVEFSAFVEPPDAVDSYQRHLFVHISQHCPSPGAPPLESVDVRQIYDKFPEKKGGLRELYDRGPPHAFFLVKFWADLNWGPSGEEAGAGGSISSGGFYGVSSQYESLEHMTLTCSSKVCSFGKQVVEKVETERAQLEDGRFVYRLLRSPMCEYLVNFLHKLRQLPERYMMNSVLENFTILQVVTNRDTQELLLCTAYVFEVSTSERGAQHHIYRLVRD
# assay_method_text: Thermal shift assay TEAD2
# Assay type: binding
Value expressed in °C; do not type the unit.

# input Field request: TEAD2 ΔTm | item: Cn1cc2cc(Oc3ccc(C(F)(F)F)cc3)cc([C@@H]3C[C@H]3C(=O)NCCO)c2n1 (single isomer, unassigned)
# output 11.9

# input What about CC(NC(=O)[C@@H]1C[C@H]1c1cc(-c2ccc(C(F)(F)F)cc2)cc2c1cnn2C)c1ccccn1 (mixture of isomers) ?
# output 0.5

# input Queued: Cn1cc2cc(Oc3ccc(C(F)(F)F)cc3)cc([C@@H]3C[C@H]3C(=O)O)c2n1 (single isomer, unassigned) [Example 16a]
# output 13.7

# input Try this molecule too: Cn1cc2cc(Oc3ccc(C(F)(F)F)cc3)cc(C3C[C@H]3C(=O)N3CCC4(COC4)C3)c2n1 (single isomer, unassigned)
# output 9.2

# input Check Cn1cc2nc(Oc3ccc(C(F)(F)F)cc3)cc([C@@H]3C[C@H]3C(=O)N3C4COCC3C4)c2n1 (single isomer, unassigned) too.
# output 6.2

# input Now the molecule `CNS(=O)(=O)CCc1cc(N(C)c2ccc(C(F)(F)F)cc2)cc2cn(C)nc12`
# output 2.6

# input Try Cn1cc2cc(Oc3ccc(C(F)(F)F)cc3)cc([C@@H]3C[C@H]3C(=O)N3CCC34CC(O)C4)c2n1 (single isomer, unassigned) next.
# output 12.4

# input Ok, now CNC(=O)[C@@H]1CC1c1cc(OC2CC3(C2)CC(F)(F)C3)cc2cn(C)nc12 (mixture of isomers)
# output 6.5

# input Next up: CC(C)NC(=O)[C@H]1C[C@@H]1c1cc(Oc2ccc(C(F)(F)F)cc2)cc2cn(C)nc12 (single isomer, unassigned) [Example 56b]
# output 10.0

# input Moving on to the next molecule: `CNS(=O)(=O)CCc1cc(N2CCC3(CCCC3)CC2)cc2cn(C)nc12`
# output 9.4

# input Can you handle `CNS(=O)(=O)CCCc1cc(-c2ccc(C(F)(F)F)cc2)cc2cn(C)nc12` next?
# output 1.9

# input Moving on to Cn1cc2cc(Oc3ccc(C(F)(F)F)cc3)cc(C3C[C@H]3C(=O)N3C[C@H]4C[C@@H]3C[C@@H]4O)c2n1 (single isomer, unassigned) [Example 103c]
# output 11.1

# input Proceed to Cn1cc2cc(Oc3ccc(C(F)(F)F)cc3)cc([C@@H]3C[C@H]3C(=O)NC3(C#N)CC3)c2n1 (single isomer, unassigned)
# output 9.9

# input Item: O=C(O)[C@@H]1CC1c1cc(-c2ccc(C(F)(F)F)cc2)cc2cccnc12 (mixture of isomers)
# output 6.6

# input Try Cn1cc2cc(O[C@H]3CC[C@@H](C(F)(F)F)CC3)cc([C@@H]3C[C@H]3C(=O)N3CC(O)C3)c2n1 (single isomer, unassigned) [Example 87a] next.
# output 10.1

# input Further, for CNC(=O)[C@@H]1CC1c1cc(Oc2ccc(C(F)(F)F)cc2)cc2cn(C3CC3)nc12 (mixture of isomers) ?
# output 11.1

# input Another: Cn1cc2cc(Oc3ccc(C(F)(F)F)c(F)c3)cc([C@@H]3C[C@H]3C(=O)N3C[C@@H]4C[C@H]3C[C@@H]4O)c2n1 (single isomer, unassigned)
# output 11.1

# input Try this molecule too: CNC(=O)[C@@H]1C[C@H]1c1cc(Oc2ccc(C(F)(F)F)cc2)cc2cn(C)nc12 (single isomer, unassigned) [Example 34a]
# output 10.2

# input Lookup `CNS(=O)(=O)CCc1cc(Oc2ccc(C(F)(F)F)cc2)cc2cn(C)nc12`
# output 10.3

# input Next molecule: [2H]C([2H])([2H])NC(=O)[C@@H]1C[C@H]1c1cc(Oc2ccc(C(F)(F)F)cc2)cc2cn(C)nc12 (single isomer, unassigned)
# output 9.8

# input And then CNS(=O)(=O)[C@@H]1CC1c1cc(-c2ccc(C(F)(F)F)cc2)cc2cn(C)nc12 (mixture of isomers) , what is it?
# output 2.5

# input What do you have for [2H]C([2H])([2H])n1cc2cc(Oc3ccc(C(F)(F)F)cc3)cc([C@@H]3C[C@H]3C(=O)NC)c2n1 (single isomer, unassigned) [Example 76a] ?
# output 10.3

* * *

# experimental_system: TEAD3 (Homo sapiens)
# Sequence (Q99594 whole entry, species assumed): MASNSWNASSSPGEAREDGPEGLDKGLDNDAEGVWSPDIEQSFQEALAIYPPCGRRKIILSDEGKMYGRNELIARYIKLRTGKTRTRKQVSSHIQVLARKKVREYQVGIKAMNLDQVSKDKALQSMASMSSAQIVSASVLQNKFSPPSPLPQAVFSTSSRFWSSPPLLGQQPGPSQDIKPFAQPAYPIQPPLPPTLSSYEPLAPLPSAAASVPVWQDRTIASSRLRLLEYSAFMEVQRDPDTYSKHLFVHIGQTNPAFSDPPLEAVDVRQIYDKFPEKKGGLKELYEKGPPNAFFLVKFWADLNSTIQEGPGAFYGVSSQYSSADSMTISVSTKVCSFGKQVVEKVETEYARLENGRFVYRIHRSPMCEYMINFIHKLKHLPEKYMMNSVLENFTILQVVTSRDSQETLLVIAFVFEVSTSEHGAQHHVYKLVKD
# assay_method_text: Thermal shift assay TEAD3
# Type: binding
For each record, write down the corresponding TEAD3 ΔTm.
Quick note: give the figure in °C, leave out the unit.

# input Which measured TEAD3 ΔTm value corresponds to Cn1cc2cc(Oc3ccc(C(F)(F)F)cc3)cc(C3C[C@H]3C(=O)N3[C@@H]4CC[C@H]3C[C@H](O)C4)c2n1 (single isomer, unassigned) ?
# output 2.2

# input What about this molecule? CNC(=O)[C@@H]1C[C@H]1c1cc(Oc2ccc(C(F)(F)F)cc2)cc2cn(C)nc12 (single isomer, unassigned) [Example 34a]
# output 1.4

# input Now the same for Cn1cc2cc(Oc3ccc(C(F)(F)F)c(F)c3)cc([C@@H]3C[C@H]3C(=O)N3C[C@@H]4C[C@H]3C[C@@H]4O)c2n1 (single isomer, unassigned)
# output 8.9

# input Same again, this time with Cn1cc2cc(Oc3ccc(C(F)(F)F)cc3)cc([C@@H]3C[C@H]3C(=O)NC3(C#N)CC3)c2n1 (single isomer, unassigned)
# output 1.7

# input Cn1cc2nc(Oc3ccc(C(F)(F)F)cc3)cc([C@@H]3C[C@H]3C(=O)N3C[C@@H]4C[C@H]3CO4)c2n1 (single isomer, unassigned) , same question.
# output 1.2

# input And what about the molecule Cn1cc2cc(Oc3ccc(C(F)(F)F)cc3)cc([C@H]3C[C@@H]3C(=O)O)c2n1 (single isomer, unassigned) [Example 16b] ?
# output 15

# input How about Cn1cc2cc(Oc3ccc(C(F)(F)F)cc3)cc([C@@H]3C[C@H]3C(=O)N3CC4CC(C3)N4)c2n1 (single isomer, unassigned) ?
# output 1.8

# input Try this molecule next: CNC(=O)[C@@H]1CC1c1cc(-c2ccc(C(F)(F)F)cc2)cc2c1cnn2C (stereo partly drawn) [Example 40]
# output 0.2

# input And for Cn1ncc2c(C3C[C@H]3C(=O)O)cc(Oc3ccc(C(F)(F)F)cc3)cc21 (mixture of isomers) ?
# output 7.4

# input What about Cn1cc2cc(Oc3ccc(C(F)(F)F)cc3)cc(C3C[C@H]3C(=O)N3CCS(=O)(=O)CC3)c2n1 (single isomer, unassigned) ?
# output 1.0

# input Moving on to the next molecule: Cn1cc2cc(Oc3ccc(C(F)(F)F)cc3)cc([C@H]3C[C@@H]3C(=O)N[C@@H](CO)c3ccccn3)c2n1 (single isomer, unassigned) [Example 59a]
# output 0.4

# input Can you handle Cn1cc2cc(Oc3ccc(C(F)(F)F)cc3)cc(C3C[C@H]3C(=O)NC34CC(O)(C3)C4)c2n1 (single isomer, unassigned) next?
# output 2.1

# input Param item: CC(C)NC(=O)[C@@H]1C[C@H]1c1cc(Oc2ccc(C(F)(F)F)cc2)cc2cn(C)nc12 (single isomer, unassigned) [Example 56a]
# output −0.3

# input Also need `CNS(=O)(=O)CCc1cc(Oc2ccc(C(F)(F)F)cc2)cc2c1NCCC2` , thanks.
# output 10.3

# input Can you check Cn1cc2nc(Oc3ccc(C(F)(F)F)cc3)cc([C@@H]3C[C@H]3C(=O)N3C4COCC3C4)c2n1 (single isomer, unassigned) next?
# output 1.6

* * *

Assignment: determine reported TEAD4 ΔTm for the given molecules.
# experimental_system: TEAD4 (Homo sapiens, UniProt Q15561)
# Sequence (Q15561 whole entry, species assumed): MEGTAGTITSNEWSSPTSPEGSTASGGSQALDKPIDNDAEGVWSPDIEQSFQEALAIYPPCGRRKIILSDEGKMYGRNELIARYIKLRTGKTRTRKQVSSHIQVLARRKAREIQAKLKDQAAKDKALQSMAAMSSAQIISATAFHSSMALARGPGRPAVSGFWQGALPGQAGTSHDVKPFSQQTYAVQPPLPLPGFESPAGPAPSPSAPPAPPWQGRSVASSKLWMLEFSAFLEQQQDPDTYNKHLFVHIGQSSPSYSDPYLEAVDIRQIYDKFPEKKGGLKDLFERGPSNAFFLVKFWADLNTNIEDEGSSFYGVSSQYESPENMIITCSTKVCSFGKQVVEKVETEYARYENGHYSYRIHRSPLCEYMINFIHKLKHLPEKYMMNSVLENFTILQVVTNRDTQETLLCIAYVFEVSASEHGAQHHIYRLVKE
# assay_method_text: Thermal shift assay TEAD4
# Format: binding
Output spec: scalar in °C, unitless text.

# input Hello, I am looking for reported TEAD4 ΔTm with TEAD4 (Homo sapiens, UniProt Q15561) for O=C(O)[C@@H]1C[C@H]1c1cc(Oc2ccc(C(F)(F)F)cc2)cc2c1NCCC2 (racemic) [Example 144] . Could you help?
# output 9.9

# input Entry to check: Cn1cc2cc(Oc3ccc(C(F)(F)F)cc3)cc(C3C[C@H]3C(=O)N3CC(C(=O)O)C3)c2n1 (single isomer, unassigned) [Example 113]
# output 4.2

# input Try this molecule next: Cn1cc2cc(Oc3ccc(C(F)(F)F)cc3)cc(C3C[C@H]3C(=O)N3CC4(CC(O)C4)C3)c2n1 (single isomer, unassigned) [Example 97]
# output 10.2
